- testedSystem: σ2 receptor (Rattus norvegicus)
- Sequence (Q5U3Y7 1-176): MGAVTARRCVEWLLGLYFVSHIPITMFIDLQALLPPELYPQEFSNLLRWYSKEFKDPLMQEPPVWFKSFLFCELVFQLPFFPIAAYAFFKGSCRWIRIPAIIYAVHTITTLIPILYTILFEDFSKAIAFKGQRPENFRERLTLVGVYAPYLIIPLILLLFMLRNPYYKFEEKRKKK
- assayOverview: PDSP radioligand binding, σ2
- condition: read-out: % inhibition at 10 µM; single concentration 10 µM
Outcome label depends on inhibition at 10 µM relative to 30%: at/above gives Yes, below gives No.

# count of solved cases: 5
O[C@@H]1[C@H](O)[C@@H]2C[C@@H]2[C@H]1n1cnc2c(NCc3cccc(Cl)c3)nc(C#Cc3ccc(F)c(F)c3)nc21    Yes
O[C@@H]1[C@H](O)[C@@H]2C[C@@H]2[C@H]1n1cnc2c(NCc3cccc(Cl)c3)ncnc21    Yes
Fc1ccc(C#Cc2nc(NCc3cccc(Cl)c3)c3nc[nH]c3n2)cc1F    No
CNC(=O)[C@@]12C[C@@H]1[C@@H](n1cnc3c(NCc4cccc(Cl)c4)nc(C#Cc4ccccc4Cl)nc31)[C@H](O)[C@@H]2O    Yes
O[C@@H]1[C@H](O)[C@@H]2C[C@@H]2[C@H]1n1cnc2c(NC(C3CC3)C3CC3)nc(Cl)nc21    No

Q: Hi, just wondering whether CNC(=O)[C@@]12C[C@@H]1[C@@H](n1cnc3c(NC)nc(C#Cc4ccc(F)c(F)c4)nc31)[C@H](O)[C@@H]2O shows inhibition at 10 µM of 30% or higher.
A: Yes

Q: Hi, just wondering whether CNC(=O)[C@@]12C[C@@H]1[C@@H](n1cnc3c(NCc4cccc(Cl)c4)nc(Cl)nc31)[C@H](O)[C@@H]2O shows inhibition at 10 µM of 30% or higher.
A: No
